PROTOCOL NOTES: MMV: MTT Cytotoxicity Assay Day 3 pi, U87-CD4-CXCR4 cells, % cell death @ 5mM compound
Assay type: toxicity, cell-based
SETUP CONDITIONS: human, u87-cd4-cxcr4, 5000 µM
Binary classification by % Cell Death, with 30 as an inclusive lower bound for Criterion met; all other cases are Criterion not met.

The examples below pair each entry with its known result.
1. CCOC(=O)c1cnc2ccc(OC)cc2c1NCc1ccccc1 | Criterion met
2. CCOc1ccc(Nc2c3ccccc3nc3ccccc23)cc1.Cl | Criterion not met
3. Cc1ccccc1OCCSc1nc2ccc(NC(=O)c3ccccc3)cc2s1 | Criterion met
4. FC(F)(F)c1cccc(Nc2nc3ccccc3nc2Nc2cccc(C(F)(F)F)c2)c1 | Criterion not met
5. COc1cc(C(=O)Nc2ccc(-c3nc4ccccc4[nH]3)cc2)cc(OC)c1OC | Criterion not met
6. O=C(CCc1ccccc1)c1ccccc1OCC(O)CN1CCCCC1 (stereo unspecified) | Criterion met

Input: Record COc1ccc(NC(=O)C2c3ccccc3C(=O)N(CC(C)C)C2c2cccs2)cc1Cl (stereo unspecified) ; criterion: % Cell Death no lower than 30. Met?
Output: Criterion not met

Input: Record COc1cc2c3cc1Oc1c(OC)c(OC)cc4c1C(Cc1ccc(O)c(c1)Oc1ccc(cc1)CC3N(C)CC2)N(C)CC4.Cl (stereo unspecified) ; criterion: % Cell Death no lower than 30. Met?
Output: Criterion met

Input: Record COc1ccc(C(O)(CCC(C)C)C(CN2CCOCC2)c2ccc(Cl)cc2)cc1.Cl (stereo unspecified) ; criterion: % Cell Death no lower than 30. Met?
Output: Criterion met

Input: Record `COc1ccc(-c2nc(NC(=O)CS(=O)(=O)c3ccc(F)cc3)sc2C)cc1` ; criterion: % Cell Death no lower than 30. Met?
Output: Criterion not met

Input: Record `O=C(Nc1ccc(Cl)c(Cl)c1)Nc1ccc(Cl)c(Cl)c1` ; criterion: % Cell Death no lower than 30. Met?
Output: Criterion met

Input: Record C=C(C)CCC(C)N1CCC(N2CCC(C(=O)NCCc3ccccc3)CC2)CC1 (stereo unspecified) ; criterion: % Cell Death no lower than 30. Met?
Output: Criterion not met

Input: Record `COc1cc(C(=O)ON=C(N)Cc2cccc3ccccc23)cc(OC)c1OC` ; criterion: % Cell Death no lower than 30. Met?
Output: Criterion met

Input: Record `Cc1ccc(N2C3c4ccccc4N(S(=O)(=O)c4ccc(C)cc4)C2c2ccccc2N3S(=O)(=O)c2ccc(C)cc2)cc1` ; criterion: % Cell Death no lower than 30. Met?
Output: Criterion met

###

PROTOCOL NOTES: MMV: MTT Cytotoxicity Assay Day 7 pi of Assay #7 (compound washed out Day 1 pi), U87-CD4-CXCR4 cells, % cell death @ 5mM compound
Type: toxicity, cell-based
SETUP CONDITIONS: human, u87-cd4-cxcr4, 5000 µM
VALUE TYPE: % Cell Death
Give the value as a plain number.

Examples from the recorded data:
1) CCN(CC)CCn1c(=N)n(CC(O)c2ccc(Cl)c(Cl)c2)c2ccccc21.Cl (configuration not stated) | 20
2) CCCCc1ccc(NS(=O)(=O)c2cc3c4c(c2)CCN4C(=O)CC3)cc1 | 1
3) CCN(CC)c1ccc(NC(=O)c2cccs2)cc1 | 43
4) COCCn1c(C)nc2ccccc2c1=O | 11
5) O=C(Nc1ccc(-c2nc3ccccc3[nH]2)cc1)c1ccc(Cl)c(Cl)c1 | 20

Input: Recorded % Cell Death of Cc1cc(NC(=O)C2c3ccccc3C(=O)N(CC(C)C)C2c2cccs2)no1 (configuration not stated) , please.
Output: -20

Input: Recorded % Cell Death of `CCOC(=O)c1cn(CC)c2cc(N(C)CCc3ccc(OC)c(OC)c3)c(F)cc2c1=O` , please.
Output: -40

Input: Recorded % Cell Death of `CCOc1ccccc1CN1CCc2nc3cc(C(C)(C)C)nn3c(O)c2C1` , please.
Output: 3

Input: Recorded % Cell Death of `COc1cc(-c2nc(-c3ccccc3)c(-c3ccccc3)[nH]2)cc(OC)c1O` , please.
Output: 84

Input: Recorded % Cell Death of CC(C)(C)CC(C)(C)NCC(O)COc1ccc(Cl)cc1Cl (configuration not stated) , please.
Output: -31

Input: Recorded % Cell Death of CCC(C)NCC(O)(c1ccc(Cl)cc1)c1ccc(Cl)cc1 (configuration not stated) , please.
Output: -33

Input: Recorded % Cell Death of `COc1cc(C(=O)Nc2ccc(-c3nc4ccccc4[nH]3)cc2)cc(OC)c1OC` , please.
Output: -7

Input: Recorded % Cell Death of OC(Cn1nnc2ccccc21)Cn1c2ccc(Br)cc2c2cc(Br)ccc21 (configuration not stated) , please.
Output: 8

Input: Recorded % Cell Death of `O=C(Nc1nc(-c2ccccn2)cs1)c1ccccc1Br` , please.
Output: -6

Input: Recorded % Cell Death of CCCCC(O)(c1ccc(Cl)cc1)C(CN1CCOCC1)c1ccc(Cl)cc1.Cl (configuration not stated) , please.
Output: -16

Input: Recorded % Cell Death of `CC(=O)c1ccc(NC(=O)CSc2nc(-c3ccccc3Cl)ns2)cc1` , please.
Output: 8

Input: Recorded % Cell Death of `Cc1cccc(-n2ncc3c(O)nc(-n4nc(C)cc4NC(=O)c4cc5ccccc5o4)nc32)c1` , please.
Output: 1

Input: Recorded % Cell Death of `COc1cc2cc(C(=O)Nc3ccccc3)c(N)nc2cc1OC` , please.
Output: 51

Input: Recorded % Cell Death of `O=C(Nc1ccc(Br)cc1)Nc1cccc(Cl)c1` , please.
Output: -4

Input: Recorded % Cell Death of `CCn1nc(-c2ccc(C(=O)OC)cc2)nc2c(=O)n(C)c(=O)nc1-2` , please.
Output: -23

Input: Recorded % Cell Death of `Cc1ccc(C)c(Cn2c(N3CCC(C(=O)NCc4cccs4)CC3)nc3ccccc32)c1` , please.
Output: 2

Input: Recorded % Cell Death of O=C(CCc1ccccc1)c1ccccc1OCC(O)CN1CCCCC1 (configuration not stated) , please.
Output: 77

###

PROTOCOL NOTES: MMV: MTT Cytotoxicity Assay Day 7 pi of Assay #10 (NO washout), U87-CD4-CCR5 cells, % cell death @ 5mM compound
Type: toxicity, cell-based
SETUP CONDITIONS: human, u87-cd4-ccr5, 5000 µM
VALUE TYPE: % Cell Death
Give the value as a plain number.

1) Oc1ccccc1CN1CCC2(CCCN(Cc3ccccc3F)C2)C1 (stereo unspecified) | 44
2) O=C(NC1CCN(Cc2ccccc2)CC1)c1cc2nc(-c3ccc(Cl)s3)cc(C(F)(F)F)n2n1 | 46
3) Cc1cc(Nc2ccc(C)c(Cl)c2)n2nc(C(F)(F)F)nc2n1 | 42
4) O=C(NCCCN1CCC(N2CCCCC2)CC1)C1=Cc2cc(Br)ccc2OC1 | 14
5) O=C(Nc1ccc(-c2nc3cc4ccccc4cc3[nH]2)cc1)c1cccc(Br)c1 | 7
6) CCOc1ccccc1NC(=O)CN1CCN(C(=O)c2ccco2)CC1 | 37
7) CCOC(=O)c1c(NC(=O)c2ccccc2)sc2c(O)c(CN(CC)CC)ccc12 | 25
8) O=C(Nc1ccsc1C(=O)NC1CCCCC1)c1ccc(F)cc1 | -2

Next:
Input: Recorded % Cell Death of `c1ccc(Cn2c(N=Nc3c(Nc4ccccc4)ccc4ccccc34)nc3ccccc32)cc1` , please.
Output: 83

###

inhibition values for the molecules below.
System: Human immunodeficiency virus 1
PROTOCOL NOTES: MMV: HIV CXCR4-tropic env HxB2 pseudovirus assay produces luciferase signal in lieu of replicating viral particles Day 3 pi, U87-CD4-CXCR4, % inhibition at 5 mM compound
Format: functional
Parameters: dose or concentration left out as unconfirmed
SETUP CONDITIONS: Human immunodeficiency virus 1, HxB2, U87.CD4.CXCR4, 72 h
Could you give me the number in %? Just the number is fine.

Examples from the recorded data:
1) CC(C)(C)CC(C)(C)NCC(O)COc1ccc2c(c1)CCC2.Cl (stereo not given) | 4
2) COc1ccc(-c2cc3c(SCC(=O)Nc4cc(C(F)(F)F)ccc4Cl)nccn3n2)cc1 | 6
3) CCOC(=O)c1cnc2ccc(OC)cc2c1NCc1ccccc1 | -2
4) O=C(NC1CCN(Cc2ccccc2)CC1)c1cc(-c2cccnc2)nc2ccc(Cl)cc12 | 8
5) CCCCCCn1c(=N)n(CC(O)COc2cccc(C)c2)c2ccccc21.Cl (stereo not given) | 2
6) Cc1ccc(C2CC(C(F)(F)F)n3nc(C(=O)N4CCN(C(c5ccccc5)c5ccccc5)CC4)cc3N2)cc1 (stereo not given) | 5

Input: Recorded inhibition of `Cc1ccc(C)c(Cn2c(N3CCC(C(=O)NCc4cccs4)CC3)nc3ccccc32)c1` , please.
Output: 7

Input: Recorded inhibition of CCCCCCOC(=O)C1=C(C)NC(=O)NC1c1ccccc1F (stereo not given) , please.
Output: 3

Input: Recorded inhibition of CC(C)(C)c1ccc(C2CC3=Nc4ccccc4N(C(=O)c4ccccc4Cl)C(c4ccc(F)cc4)C3=C(O)C2)cc1 (stereo not given) , please.
Output: -1

Input: Recorded inhibition of `COc1ccc(C=C2SC(Nc3ccc(F)cc3)=NC2=O)c(OC)c1` , please.
Output: 4
